Every entry's value here was drawn from ChEMBL document CHEMBL3407441.

assay_system: Phosphatidylinositol 4,5-bisphosphate 3-kinase catalytic subunit alpha isoform (Homo sapiens)
Sequence (P42336 whole entry, canonical isoform): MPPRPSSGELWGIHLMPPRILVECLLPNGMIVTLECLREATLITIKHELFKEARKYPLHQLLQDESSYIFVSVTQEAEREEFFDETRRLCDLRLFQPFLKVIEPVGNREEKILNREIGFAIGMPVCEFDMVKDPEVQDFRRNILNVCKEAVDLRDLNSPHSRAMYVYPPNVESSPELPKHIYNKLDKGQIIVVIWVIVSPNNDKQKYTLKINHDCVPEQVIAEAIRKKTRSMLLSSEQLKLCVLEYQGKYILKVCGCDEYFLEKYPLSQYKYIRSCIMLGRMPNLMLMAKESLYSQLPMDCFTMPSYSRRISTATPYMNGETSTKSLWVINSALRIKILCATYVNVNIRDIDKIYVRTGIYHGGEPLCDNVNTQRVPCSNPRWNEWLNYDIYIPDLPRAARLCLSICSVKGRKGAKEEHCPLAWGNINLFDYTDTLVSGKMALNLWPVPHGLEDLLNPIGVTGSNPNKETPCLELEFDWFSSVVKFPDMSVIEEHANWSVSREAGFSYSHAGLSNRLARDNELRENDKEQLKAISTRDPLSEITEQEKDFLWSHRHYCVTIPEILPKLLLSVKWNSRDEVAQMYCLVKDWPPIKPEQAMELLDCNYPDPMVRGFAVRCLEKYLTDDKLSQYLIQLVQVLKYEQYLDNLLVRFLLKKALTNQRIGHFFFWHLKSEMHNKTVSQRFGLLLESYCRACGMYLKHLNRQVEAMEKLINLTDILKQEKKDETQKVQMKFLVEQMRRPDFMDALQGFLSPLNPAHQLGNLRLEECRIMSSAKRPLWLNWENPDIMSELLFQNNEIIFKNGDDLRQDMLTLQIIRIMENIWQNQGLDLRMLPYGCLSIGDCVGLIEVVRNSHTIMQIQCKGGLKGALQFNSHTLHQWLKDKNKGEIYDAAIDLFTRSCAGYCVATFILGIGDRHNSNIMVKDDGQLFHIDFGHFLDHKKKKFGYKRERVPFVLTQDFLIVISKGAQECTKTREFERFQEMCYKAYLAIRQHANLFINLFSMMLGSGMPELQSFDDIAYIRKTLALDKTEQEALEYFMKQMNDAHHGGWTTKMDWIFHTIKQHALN
procedure_summary: Inhibition of PI3K-alpha kinase (unknown origin) using ULight-4E-BP1 as substrate at 10 uM after 60 mins by luminescence assay
test_context: in the assay text read “L-alpha-phosphatidylinositol” for “ULight-4E-BP1”
Here the recorded inhibition is given for each entry.

Example compounds with recorded inhibition:
>  <chemical_smiles>
O=C(O)c1ccc2occ(/C=N/Nc3nc(N4CCOCC4)c4sccc4n3)c(=O)c2c1

>  <quantity_name>
inhibition

>  <observed_measurement>
95%

$$$$
>  <chemical_smiles>
O=c1c(/C=N/Nc2nc(N3CCOCC3)c3sccc3n2)coc2ccc([N+](=O)[O-])cc12

>  <quantity_name>
inhibition

>  <observed_measurement>
58.8%

$$$$
>  <chemical_smiles>
O=c1c(/C=N/Nc2nc(N3CCOCC3)c3ccsc3n2)coc2ccc([N+](=O)[O-])cc12

>  <quantity_name>
inhibition

>  <observed_measurement>
91.2%

$$$$

Challenge: Quick one: inhibition of `O=C(O)c1ccc2occ(/C=N/Nc3nc(N4CCOCC4)c4ccsc4n3)c(=O)c2c1` ?
Response given: 90.6%

---

A short record of IC50 observed with Serine/threonine-protein kinase mTOR (Homo sapiens, UniProt P42345) follows.

>  <chemical_smiles>
O=c1c(/C=N/Nc2nc(N3CCOCC3)c3sccc3n2)coc2ccc([N+](=O)[O-])cc12

>  <IC50>
4.62 µM

$$$$

Challenge: Hi! What's the reported IC50 for `O=C(O)c1ccc2occ(/C=N/Nc3nc(N4CCOCC4)c4sccc4n3)c(=O)c2c1` on Serine/threonine-protein kinase mTOR (Homo sapiens, UniProt P42345)?
Response given: 3.31 µM

---

Here the recorded IC50 is given for each entry.
assay_system: Phosphatidylinositol 4,5-bisphosphate 3-kinase catalytic subunit alpha isoform (Homo sapiens)
procedure_summary: Inhibition of PI3K-alpha kinase (unknown origin) using L-alpha-phosphatidylinositol as substrate after 60 mins by luminescence assay
Respond with the bare value in nM.

Example compounds with recorded IC50:
>  <chemical_smiles>
O=c1c(/C=N/Nc2nc(N3CCOCC3)c3ccsc3n2)coc2ccc([N+](=O)[O-])cc12

>  <IC50 [nM]>
1530

$$$$
>  <chemical_smiles>
O=C(O)c1ccc2occ(/C=N/Nc3nc(N4CCOCC4)c4ccsc4n3)c(=O)c2c1

>  <IC50 [nM]>
2350

$$$$

// moving on: another record for IC50
Challenge: Quick one: IC50 of `O=C(O)c1ccc2occ(/C=N/Nc3nc(N4CCOCC4)c4sccc4n3)c(=O)c2c1` ?
Response given: 1810
